Values were extracted from PubChem BioAssay AID588493.

Measured inhibition accompanies every entry in the list below.
target: 26S proteasome non-ATPase regulatory subunit 14 (Homo sapiens) (UniProt O00487); assay: inhibition of 26S proteasome subunit Rpn11 – biochemical, fluorescence polarization, uHTS, primary screen (AID 588493); conditions: human 26S proteasome, Ub4-pepOG fluorescence polarization; at 20 µM; active compounds read high; 20S core pre-blocked with epoxomicin
Sequence (O00487 whole entry, looked up): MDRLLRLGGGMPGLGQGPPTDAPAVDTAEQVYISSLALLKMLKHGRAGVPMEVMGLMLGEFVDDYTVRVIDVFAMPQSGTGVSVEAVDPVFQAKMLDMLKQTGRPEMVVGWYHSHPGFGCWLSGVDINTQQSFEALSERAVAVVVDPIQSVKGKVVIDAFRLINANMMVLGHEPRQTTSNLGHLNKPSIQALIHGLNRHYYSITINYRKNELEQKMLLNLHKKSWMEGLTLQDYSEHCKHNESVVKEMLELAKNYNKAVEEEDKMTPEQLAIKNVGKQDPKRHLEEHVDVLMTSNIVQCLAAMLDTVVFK
In all, about 360,000 compounds went through this assay and about 2,100 (0.58%) were called active. What follows is part of a selection rich in actives, with near analogues and random picks from the rest.
observation.type: inhibition (%)

{"compound": "Oc1ccc(/C=N/Nc2nc(-c3ccccc3F)nc3ccccc23)c(O)c1", "unit.of.measurement": "%", "numeric.readout": 43.1}
{"compound": "O=C1NC(=O)C2C1C(c1ccc([N+](=O)[O-])cc1)=NN2Cc1ccccc1 (stereo not given)", "unit.of.measurement": "%", "numeric.readout": 50.8}
{"compound": "Cc1ccc(CSCC2Nc3ccc(C(=O)N4CCN(c5ccc(F)cc5)CC4)cc3NC2=O)cc1 (stereo not given)", "unit.of.measurement": "%", "numeric.readout": 109}
{"compound": "O=C(NNc1c2ccccc2nc2ccccc12)c1cc2ccccc2cc1O", "unit.of.measurement": "%", "numeric.readout": -5.5}
{"compound": "O=C(COC(=O)c1cc(=O)[nH]c2ccccc12)Nc1nc(-c2cccc(Br)c2)cs1", "unit.of.measurement": "%", "numeric.readout": 1.7}
{"compound": "CCOc1cccc(/C=N/N2C(=O)CSC2=S)c1O", "unit.of.measurement": "%", "numeric.readout": 32.9}
{"compound": "O=C1CSC(=S)N1/N=C/c1ccc(O)c([N+](=O)[O-])c1", "unit.of.measurement": "%", "numeric.readout": 48.1}
{"compound": "COC(=O)C1=C(C)NC2=C(C(=O)c3ccccc32)C1c1ccc(-c2ccc(C(=O)O)cc2)o1 (stereo not given)", "unit.of.measurement": "%", "numeric.readout": 67.4}
{"compound": "C=CCn1c(-c2ccccc2OCC)n[nH]c1=S", "unit.of.measurement": "%", "numeric.readout": -4.4}
{"compound": "CCOc1ccc(NC(=O)c2cccc3c2C(=O)N(CC2CCCO2)C3)cc1 (stereo not given)", "unit.of.measurement": "%", "numeric.readout": -0.9}
{"compound": "O=C(Cc1ccccc1)NNC(=O)C1CCN(c2ncccn2)CC1", "unit.of.measurement": "%", "numeric.readout": -1.3}
{"compound": "COc1ccc(C(=O)NCc2ccc(Cl)cc2)cc1S(=O)(=O)N1CCCC1", "unit.of.measurement": "%", "numeric.readout": -4.5}
{"compound": "COC(=O)C1=C(C)NC(=O)/C1=C/c1ccc(CNS(=O)(=O)c2ccc(C)cc2)o1", "unit.of.measurement": "%", "numeric.readout": -0.8}
{"compound": "CCCCC(C(=O)NC(C)(C)C)N(Cc1ccccc1)C(=O)c1snc(C(N)=O)c1N (stereo not given)", "unit.of.measurement": "%", "numeric.readout": -1.4}
{"compound": "C=CCNC(=O)C1CC=CCC1C(=O)O (stereo not given)", "unit.of.measurement": "%", "numeric.readout": 3.6}

----------
Measured inhibition, listed per entry.
target: 26S proteasome non-ATPase regulatory subunit 14 (Homo sapiens); test: inhibition of 26S proteasome subunit Rpn11 – biochemical, fluorescence polarization, uHTS, primary screen (AID 588493); details: human 26S proteasome, Ub4-pepOG fluorescence polarization; at 20 µM; active compounds read high; 20S core pre-blocked with epoxomicin
Out of some 360,000 compounds screened, about 2,100 (0.58%) were called active. For the sample, actives were picked, then their nearest neighbours and some compounds at random.
observation.type: inhibition (%)

{"compound": "Cc1c(C=O)n(C)n(-c2ccccc2)c1=O", "unit.of.measurement": "%", "numeric.readout": 8.1}
{"compound": "COCC(=O)N1CCCC(C(=O)c2ccc(C(F)(F)F)cc2)C1 (centres undefined)", "unit.of.measurement": "%", "numeric.readout": -0.9}
{"compound": "O=[N+]([O-])c1ccccc1Nc1ccc(O)cc1", "unit.of.measurement": "%", "numeric.readout": 0.3}
{"compound": "COc1ccc(Cl)cc1NC(=O)COC(=O)c1ccc(Br)o1", "unit.of.measurement": "%", "numeric.readout": -3.1}
{"compound": "Cc1ccc(NC(=O)CN2CCc3ccccc3C2)cc1", "unit.of.measurement": "%", "numeric.readout": 90.1}
{"compound": "O=C(OCC(=O)N1CCOCC1)c1ccc(N2CCOCC2)c([N+](=O)[O-])c1", "unit.of.measurement": "%", "numeric.readout": 1.7}
{"compound": "COc1ccc(C2c3[nH]c4ccccc4c3C[C@H]3C(=O)N(CC(C)C)CC(=O)N23)c(OC)c1 (some centres undefined)", "unit.of.measurement": "%", "numeric.readout": -8.2}
{"compound": "O=C(N/N=C/c1cccc(Br)c1)c1ccc(N2CCCC2=O)cc1", "unit.of.measurement": "%", "numeric.readout": 49.1}
{"compound": "O=C(CN1CCc2cc3c(cc2C1)OCCCO3)Nc1ccccc1", "unit.of.measurement": "%", "numeric.readout": 1.3}
{"compound": "O=C(CSc1ccc2nnc(-c3ccccc3)n2n1)N1CCCc2ccccc21", "unit.of.measurement": "%", "numeric.readout": 39.2}
{"compound": "CCOc1ccc(-n2c(O)c(/C=N/c3ccnn3Cc3ccncc3)c3ccccc3c2=O)cc1", "unit.of.measurement": "%", "numeric.readout": 76.5}
{"compound": "O=C(c1ccc(OC2CCN(C(=O)c3cccnc3)CC2)cc1)N1CCCCCC1", "unit.of.measurement": "%", "numeric.readout": -0.5}
{"compound": "CN(C)CCn1c2c(c(SCC(=O)Nc3ccccc3C(F)(F)F)nc1=O)CCCC2", "unit.of.measurement": "%", "numeric.readout": -0.6}
{"compound": "COc1cc(CN(C)Cc2nc3cc(C(F)(F)F)ccc3c(=O)[nH]2)ccc1OC(F)F", "unit.of.measurement": "%", "numeric.readout": 5}
{"compound": "CCOc1ccc(N/C(N)=N/c2nc(C)c(C)c(=O)[nH]2)cc1", "unit.of.measurement": "%", "numeric.readout": -8.8}
{"compound": "O=C(CCS(=O)(=O)c1ccc(Br)cc1)NCCc1ccc(Cl)cc1", "unit.of.measurement": "%", "numeric.readout": -2.9}
{"compound": "O=C(Nc1cccc(Cl)c1)c1cc(S(=O)(=O)N2CCCCC2)c[nH]1", "unit.of.measurement": "%", "numeric.readout": 3.9}
{"compound": "CC(C)S(=O)(=O)c1csc(NC(=O)Nc2ccc(Cl)cc2)c1Cl", "unit.of.measurement": "%", "numeric.readout": 1.6}
{"compound": "CC(O)c1nc2ccccc2n1Cc1ccc([N+](=O)[O-])cc1 (centres undefined)", "unit.of.measurement": "%", "numeric.readout": 1.9}
{"compound": "COC(=O)Cc1csc(/N=C/c2c(O)n(-c3cccc(C(F)(F)F)c3)c(=O)c3ccccc23)n1", "unit.of.measurement": "%", "numeric.readout": 33.4}
{"compound": "COc1ccc(Cc2cc(-c3ccc(F)cc3)n[nH]c2=O)cc1", "unit.of.measurement": "%", "numeric.readout": -2}
{"compound": "COc1ccc(Cl)cc1NC(=O)CCS(=O)(=O)c1ccc(Br)cc1", "unit.of.measurement": "%", "numeric.readout": 80.4}
{"compound": "Cc1cccc(NS(=O)(=O)c2ccc([N+](=O)[O-])cc2)n1", "unit.of.measurement": "%", "numeric.readout": -2.6}
{"compound": "COCCCNC(=O)c1ccc(CNS(=O)(=O)c2ccc(NC(C)=O)cc2)cc1", "unit.of.measurement": "%", "numeric.readout": -1.2}
{"compound": "Cc1ccc(Nc2ccccc2N)cc1", "unit.of.measurement": "%", "numeric.readout": 53}
{"compound": "CCn1c(-c2cc(OC)ccc2OC)csc1=Nc1c(C)n(C)n(-c2ccccc2)c1=O", "unit.of.measurement": "%", "numeric.readout": 1.2}
{"compound": "COc1cc(OC)cc(C(=O)Nc2ncc3c(n2)CC(C)(C)CC3=O)c1", "unit.of.measurement": "%", "numeric.readout": 1.2}
{"compound": "Cc1ccc(NC(=O)CN(C)Cc2ccc(F)cc2)c([N+](=O)[O-])c1", "unit.of.measurement": "%", "numeric.readout": -8.1}
{"compound": "O=C(Nc1ccc(N2CCCC2=O)cc1)c1cncc(Br)c1", "unit.of.measurement": "%", "numeric.readout": -4.8}
